- method-notes: small-molecule microarray binders of probe aCHRDL2, primary screen, biochemical, biotinylated probe, 635/667 nm fluorescence (AID 1100)
- recorded-conditions: higher = more signal
property-name: composite z-score

[
  {
    "compound": "CC(C)[C@@H](OCc1ccccc1)[C@H](C)C=NO[C@H](C)c1cn([C@@H]2COC[C@H]2O)nn1",
    "experimental-result": -0.511
  },
  {
    "compound": "CCOC(=O)[C@H](Cc1ccccc1)NC(=O)CCC1CC(OC(=O)NCc2ccc3c(c2)OCO3)CC2(CCCC(COC(=O)NCCCN3CCCC3=O)O2)O1 (some centres not stated)",
    "experimental-result": -0.431
  },
  {
    "compound": "CCN1C(=O)[C@H]2[C@H]3[C@H](O)[C@H](O)CC(=NOC(C)CN4CCCc5nc(C)c(C)cc54)[C@@H]3CC[C@H]2C1=O (some centres not stated)",
    "experimental-result": -0.598
  },
  {
    "compound": "COC(=O)[C@H](C)NC(=O)CCC1CC(OC(=O)NCc2cccc3ccccc23)CC2(CCCC(COC(=O)NCc3ccccc3)O2)O1 (some centres not stated)",
    "experimental-result": -0.459
  },
  {
    "compound": "CO[C@@H]1COC(=O)[C@H](COCc2ccccc2)NC(=O)CC=C[C@@H](C)[C@H](OC)COC(=O)[C@@H](C)NC(=O)CC=C[C@H]1C",
    "experimental-result": -0.97
  },
  {
    "compound": "C[C@@H]1CC[C@H]2C(=O)O[C@@H](COc3ccc(C(C)(C)C)cc3)CN2[C@H]1c1ccc(Br)cc1",
    "experimental-result": -0.427
  },
  {
    "compound": "COc1ccc(COC(=O)NN=C2C[C@@H](O)[C@@H](O)[C@@H]3[C@@H]4C(=O)N(C(C)(C)C)C(=O)[C@@H]4CC[C@@H]23)cc1",
    "experimental-result": -0.64
  }
]
